target-of-assay: T1, Polyhistidine-tagged recombinant human GFAP expressed from E. coli (human, UniProt P14136 1-432)
T1 construct: also called His-tagged GFAP; not shown: polyhistidine tag
T1 sequence (P14136 whole entry): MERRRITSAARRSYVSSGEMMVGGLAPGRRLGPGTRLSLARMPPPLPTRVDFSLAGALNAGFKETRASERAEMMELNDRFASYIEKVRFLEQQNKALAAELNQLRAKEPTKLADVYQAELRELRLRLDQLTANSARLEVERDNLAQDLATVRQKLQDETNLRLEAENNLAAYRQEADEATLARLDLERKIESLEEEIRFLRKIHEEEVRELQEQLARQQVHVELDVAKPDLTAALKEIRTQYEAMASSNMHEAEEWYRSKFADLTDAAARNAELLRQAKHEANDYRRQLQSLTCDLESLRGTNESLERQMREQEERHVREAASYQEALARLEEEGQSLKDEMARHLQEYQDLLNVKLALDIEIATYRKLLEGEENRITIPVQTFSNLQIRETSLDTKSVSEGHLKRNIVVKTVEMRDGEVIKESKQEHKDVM
method-summary: BLI (Octet QKe); His-tagged GFAP on anti-Penta-HIS sensor, antibody in solution
Okay, here is how we bin by Kd: b0 (below 0.2 nM), b1 (0.2 nM to below 1 nM), b2 (1 nM or more)

- binder: "GFAP-1 (antibody, V domains shown, also called mouse anti-GFAP antibody GFAP-1) VH: EVHLQQSGTVLARPGASVKMSCKASGYSFTSYWMHWVKQRPGQGLEWIGAFYPENSDTNYNQKFKGKARLTAVTSANTAYMELNSLTNEDSAVYYCTRPLLFSAYFDFWGQGTTLTVSS VL: DVLMTQTPLSLPVSLGDQASISCRSSQSIVHSYGNTYLEWYLQKPGLSPKLLIYKVSNRFSGVPDRFSGSGSGTDFTLTISRVEAEDLGVYYCFQGSHVPYTFGGGTKLEIK"
  qualitative-label: "b0"
- binder: "GFAP-17 (antibody, V domains shown, also called mouse anti-GFAP antibody GFAP-17) VH: EVKLEESGGGLVQPGGSMKLSCVASGFTFSYYWMSWVRQSPEKGLEWIAEIRLKSNIYATHYAASVKGRFTISRDDSKSSVYLQMNNLRAEDTGIYFCTRFGTGAMDYWGQGTSVTVSS VL: DIVMSQSPSSLAVSVGEKVTMSCKSSQSLLYRTNQKNYLAWYQQKPGQSPKLLIYWASSRESGVPDRFSGSGSGTDFTLTISSVKAEDLAVYYCQQYYSYPWTFGGGTKLEIK"
  qualitative-label: "b1"
- binder: "GFAP-2 (antibody, V domains shown, also called mouse anti-GFAP antibody GFAP-2) VH: DVQLVESGGGLVQPGGSRKLSCAASGFTFSSFGMHWVRQAPEKGLEWVAYISSGSSIIYYADTVKGRFTISRDNPKNTLFLQMTSLRSEDTAMYYCTGSDWGSFAYWGQGTLVTVSA VL: DVVMTQTPLSLPVSLGDQASISCRSSQSLVYSNGNTYLHWYLQKPGQSPKLLIYKVSNRFFGVPDRFSGSGSGTDFTLKISRVEAEDLGVYFCSQSTHVPYTFGGGTKLEIK"
  qualitative-label: "b0"
- binder: "GFAP-14 (antibody, V domains shown, also called mouse anti-GFAP antibody GFAP-14) VH: DVQLVESGGGSVQPGGSRKLSCAASGFTFSSFGMHWVRQAPEKGLEWVAYISSDSNTVYYADTVKGRFTISRDNPKNTLFLQMTSLRSEDTAMYYCARYAMDYWGQGTSVTVSS VL: QIVLTQSPALMSASPGEKVTMTCSASSSVSYMYWYQQKPRSSPKPWIYLTSNLASGVPARFSGSGSGTSYSLTISSMEAEDAATYYCQQWSSNPPTFGAGTKLELK"
  qualitative-label: "b1"
- binder: "GFAP-5 (antibody, V domains shown, also called mouse anti-GFAP antibody GFAP-5) VH: EVQLVESGGGLVKPGGSLKLSCAASGFTFSAYGMHWVRQAPEKGLEWIAYISSGSSTIYYADTVKGRFTISRDNAKNTLFLQMTSLRSEDTAMYYCASSYALDYWGQGTSVTVSS VL: DVVMTQTPLSLPVSLGDQASISCRSSQSLVYSNGNTYLHWYLQKPGQSPKLLIYKVSNRFSGVPDRFSGSGSGTDFTLKISRVEAEDLGVYFCSQSTHVPYTFGSGTKLEIK"
  qualitative-label: "b2"
- binder: "GFAP-18 (antibody, V domains shown, also called mouse anti-GFAP antibody GFAP-18) VH: EVILVESGGGLVKPGGSLKVSCAVSGFTFSNFAMSWVRQTPEKRLEWVASISSGGTTYYPDNVKGRFTISRDNARNIMYLQMSSLRSEDTAMYFCARGGLHYFGYWGQGTTLTVSS VL: DIVMTQSHKFMSTSVGDRVSITCKASQDVNTAVAWYQQKPGQSLKLLIYSASYRYIGVPDRFTGSGSGTDFTFTINSVQAEDLAVYYCHQYYSTPLTFGTGTKLELK"
  qualitative-label: "b0"
- binder: "GFAP-6 (antibody, V domains shown, also called mouse anti-GFAP antibody GFAP-6; HRP-labeled anti-GFAP antibody) VH: EVQLQQSGAEFVKPGASVKLSCTASGFNIKDTDMHWVRQRPEQGLESIGLIDPAIGNTKYDPKFQGKATITADTSSNAAYLQLSSLTSEDTAVYYCARSDRYLAWFAYWGQGTLVTVSA VL: DIVMTQSPATLSVTPGDRVSLSCRASQSISDFLHWYQQKSHGSPRLLIKYSSQSISGIPSRFSGSGSGSDFTLSINSVEPEDVGVYYCQNGHTFPYTFGGGTKLEIK"
  qualitative-label: "b2"
- binder: "GFAP-3 (antibody, V domains shown, also called mouse anti-GFAP antibody GFAP-3) VH: EVKLEESGGGLVQPGGSMKLSCVASGFTFTNYWMSWVRQSPEKGLEWVAQIRLKSDNYATHYAESVKGRFTISRDDSKSSVYLQMNNLRAEDTGIYYCTGGEFLSWFAYWGQGTLVTVSA VL: DIVMSQSPSSLAVSAGEKVTMSCKSSQSLFNSRTRKNYLAWYQQKPGQSPKLLIYWASTRESGVPDRFTGSGSGTDFTLTISSVQAEDLAVYYCKQSYYLYTFGSGTKLEIK"
  qualitative-label: "b2"
- binder: "GFAP-9 (antibody, V domains shown, also called mouse anti-GFAP antibody GFAP-9) VH: DVQLQESGPGLVKPSQSLSLTCSVTGYSITSGFYWSWIRQFPGNKLEWMGYISYDGSNNYNPSLKNRISITRDTSKNQFFLKLNSVTTEDTATYYCARAYGYDGAWFAYWGQGTLVTVSA VL: DIVMTQSQKFMSTSVGDRVSITCKASQNVRTAVAWYQQKPGQSPKALIYLASNRHTGVPDRFTGSGSGTDFTLTISNVQSEDLADYFCLQHWNNPYTFGGGTKLEIK"
  qualitative-label: "b2"
